Test system: Zika virus
Experiment: Functional CPE-based assay to measure dose dependent changes in antiviral-drug inhibitory efficacy against Zika virus MR766 in Vero E6 miRFP670 cells. Cells are treated with antiviral candidates that are serially diluted. EC50 is reported via analysis of MTS assay as a readout of CPE. The assay has been performed by KU Leuven.
Type: organism-based, Chlorocebus sabaeus, Vero C1008
Details: Zika virus, Vero C1008
REPORTED PROPERTY: EC50

Take each entry in turn and give its EC50.
1. O=C(NS(=O)(=O)C1CC1)c1cc(Cl)ccc1NS(=O)(=O)c1ccc(Oc2ccccc2Cl)cc1
2. NCc1cc(/C=C/C(=O)O)cc(NC(=O)c2cc(Cl)cc(NC(=O)OCc3ccccc3)c2)c1
3. CCNC(=O)Nc1cc(Cl)cc(C(=O)Nc2cccc(CN)c2)c1
4. O=C(Nc1cc(Cl)cc(-c2cccc3c(C(=O)O)cccc23)c1)OCc1ccccc1
5. CCc1cc(Br)cc2c(Cc3ccc(-c4nnn[nH]4)cc3)c[nH]c12

## Result
1. > 50 µM
2. > 50 µM
3. > 50 µM
4. > 50 µM
5. > 50 µM
